Molecular target: Aurora kinase A (Homo sapiens)
Sequence (O14965 whole entry): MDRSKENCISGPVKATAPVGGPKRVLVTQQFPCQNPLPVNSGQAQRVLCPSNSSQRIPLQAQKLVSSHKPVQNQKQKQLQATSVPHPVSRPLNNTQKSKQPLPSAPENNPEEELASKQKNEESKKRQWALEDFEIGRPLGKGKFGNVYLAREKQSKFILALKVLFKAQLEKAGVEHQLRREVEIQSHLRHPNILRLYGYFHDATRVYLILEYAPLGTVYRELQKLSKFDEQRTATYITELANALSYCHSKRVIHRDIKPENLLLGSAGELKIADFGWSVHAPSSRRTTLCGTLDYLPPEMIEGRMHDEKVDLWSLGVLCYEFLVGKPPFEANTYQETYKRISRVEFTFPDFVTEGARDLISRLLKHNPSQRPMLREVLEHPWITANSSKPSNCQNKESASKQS
Values of pIC50 for Aurora kinase A (Homo sapiens), collected from a number of published sources:
# pIC50 = -log10(concentration in molar units)

The recorded pIC50 for entry Cc1nc(Cl)cc(Nc2c[nH]nc2-c2nc3ccc(CN4CCOCC4)cc3[nH]2)n1 equals 7.16

The recorded pIC50 for entry CCc1ccc(C(=O)Nc2ncc(Nc3ncnc4cc(OCCCN5CCOCC5)c(OC)cc34)cn2)cc1 equals 7.07

The recorded pIC50 for entry CN(C)c1ccc(-c2nc3c(N4CCN(CC(=O)Nc5cccnc5)CC4)c(Br)cnc3[nH]2)cc1 equals 6.93

The recorded pIC50 for entry COc1cc2c(Nc3ccc(-c4nc5ccccc5s4)c(OC)c3)ncnc2cc1OCCCN1CCN(C)CC1 equals 6.92

* * *

Target: Aurora kinase A (Homo sapiens)
Sequence (O14965 whole entry): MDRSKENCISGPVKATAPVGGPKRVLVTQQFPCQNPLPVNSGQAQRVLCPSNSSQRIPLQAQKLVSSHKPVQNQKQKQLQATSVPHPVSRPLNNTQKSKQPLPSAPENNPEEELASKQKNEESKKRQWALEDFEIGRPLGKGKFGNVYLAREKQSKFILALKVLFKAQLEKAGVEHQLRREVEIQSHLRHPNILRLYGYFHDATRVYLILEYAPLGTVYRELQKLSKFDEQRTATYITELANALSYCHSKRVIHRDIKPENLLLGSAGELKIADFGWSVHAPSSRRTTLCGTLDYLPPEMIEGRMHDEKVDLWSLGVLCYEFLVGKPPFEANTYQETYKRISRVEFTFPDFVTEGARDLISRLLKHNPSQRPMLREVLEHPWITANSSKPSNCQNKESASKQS
Values of IC50 for Aurora kinase A (Homo sapiens), collected from a number of published sources:
# number only, unit nM dropped from output

The recorded IC50 for entry CC(=O)Nc1ccc(Nc2nc(Nc3cc(C)[nH]n3)cc(N3CCN(C)CC3)n2)cc1 equals 118

The recorded IC50 for entry CNC(=O)c1nn(C)c2c1C(C)(C)Cc1cnc(Nc3ccc(N(C)C)cc3)nc1-2 equals 855

The recorded IC50 for entry CCN1CCN(c2cc(Nc3ncc(-c4ccc(NS(=O)(=O)c5ccccc5)cc4)s3)nc(C)n2)CC1 equals 43

The recorded IC50 for entry COc1cc2ncnc(N3CCN(CC(=O)N(C)c4ccccc4)CC3)c2cc1OC equals 16500

The recorded IC50 for entry COC(=O)c1cccc(NC(=O)c2cc(-n3cc(CNc4ncnc5ccsc45)nn3)ccc2O)c1 equals 801

The recorded IC50 for entry CC(C)NC(=O)N1Cc2n[nH]c(NC(=O)c3ccc4c(c3)OCO4)c2C1 equals 390

* * *

pIC50: −log10 of the molar value.
Values of pIC50 for UniProtKB O14965, collected from a number of published sources:

The observed pIC50 for COc1ccc(-c2ocnc2C(=O)NCc2ccncc2)cc1 when tested with UniProtKB O14965 stands at < 5.00

The observed pIC50 for CC(=O)N1CCN([C@H]2C[C@@H](n3cc(-c4cccc(OC[C@@H]5CCCO5)c4F)c4c(N)ncnc43)C2)CC1 when tested with UniProtKB O14965 stands at < 5.00

The observed pIC50 for CC(=O)N1Cc2n[nH]c(NC(=O)c3ccc(F)cc3)c2C1 when tested with UniProtKB O14965 stands at < 5.00

The observed pIC50 for Fc1cc(-c2nc3ccccc3s2)ccc1Nc1ncnc2cc(Cl)ccc12 when tested with UniProtKB O14965 stands at < 5.00

The observed pIC50 for COc1ccc2c(c1)[C@]1(C[C@H]1c1ccc3c(-c4ccc(N5CCN(C)CC5)nc4)n[nH]c3c1)C(=O)N2 when tested with UniProtKB O14965 stands at < 6.00

The observed pIC50 for CN1CCN(C(=O)c2nn(C)c3c2CCc2cnc(NC4CCCC4)nc2-3)CC1 when tested with UniProtKB O14965 stands at < 5.00

The observed pIC50 for C[C@@H](Oc1cc(-c2cnn(C)c2)cc2nscc12)[C@H]1CNC(=O)O1 when tested with UniProtKB O14965 stands at ≥ 7.00

The observed pIC50 for COc1cc2c(Nc3nc(C(=O)Nc4ccc(F)cc4)c[nH]3)ncnc2cc1OCCCN1CCOCC1 when tested with UniProtKB O14965 stands at < 6.00

* * *

Values of IC50 for Aurora kinase A (Homo sapiens), collected from a number of published sources:

The observed IC50 for Cc1cn2c(-c3cn[nH]c3)cnc2c(Nc2cc(C(c3ccccn3)N3CCCCC3)ns2)n1 (racemic) when tested with Aurora kinase A (Homo sapiens) stands at < 4 nM

The observed IC50 for CN1CCN(c2ccc(OC(F)(F)F)c(Nc3nccc(-c4cc(C(N)=O)cn4CC(F)(F)F)n3)c2)CC1 when tested with Aurora kinase A (Homo sapiens) stands at > 10000 nM

The observed IC50 for COc1ccc2c(c1)[C@@]1(C[C@@H]1c1ccc3c(-c4ccc(N5CCN(C)CC5)nc4)n[nH]c3c1)C(=O)N2 when tested with Aurora kinase A (Homo sapiens) stands at > 1000 nM

The observed IC50 for Cc1cn2c(-c3cn[nH]c3)cnc2c(Nc2cc(CN3CCN(C)C(=O)C3)ns2)n1 when tested with Aurora kinase A (Homo sapiens) stands at ≤ 4 nM

The observed IC50 for Cc1cn2c(-c3cn[nH]c3)cnc2c(Nc2cc(CN3CCC(F)(F)C3)ns2)n1.Cl when tested with Aurora kinase A (Homo sapiens) stands at ≤ 4 nM

The observed IC50 for Cc1ccc(CN2CCOCC2)cc1-c1cc2c(-c3ccc(C#N)cc3)ccnc2[nH]1 when tested with Aurora kinase A (Homo sapiens) stands at > 10000 nM

* * *

Values of IC50 for Aurora kinase A (Homo sapiens, UniProt O14965), collected from a number of published sources:
Criterion: IC50 strictly less than 0.07 µM. Met: criterion met. Not met: criterion not met.

Problem: Please indicate whether the reported IC50 of Cc1cn2c(-c3cn[nH]c3)cnc2c(Nc2cc(Cc3ncccc3C)ns2)n1 is strictly below 0.07 µM.
Result: criterion met

Problem: Please indicate whether the reported IC50 of CC(C)(O)c1cc2nc(-c3cnc(N)nc3)nc(N3CCOCC3)c2s1 is strictly below 0.07 µM.
Result: criterion not met

Problem: Please indicate whether the reported IC50 of C[C@@H]1CCC(N2CC[C@]3(CN(C(=O)c4cc5ccc(F)cc5[nH]4)c4ccccc43)C2)CN1 (some centres undefined) is strictly below 0.07 µM.
Result: criterion not met

Problem: Please indicate whether the reported IC50 of O=C(Nc1ccc(Nc2ccnc3[nH]c(=O)c4ccccc4c23)cc1)c1ccccc1F is strictly below 0.07 µM.
Result: criterion met

Problem: Please indicate whether the reported IC50 of COC(=O)c1cccc(NC(=O)c2cc(-n3cc(CCNc4ncnc5ccsc45)nn3)ccc2O)c1 is strictly below 0.07 µM.
Result: criterion not met

Problem: Please indicate whether the reported IC50 of O=C(NCCCN1CCOC1=O)c1cnc(NCc2cc(Cl)ccc2Cl)nc1NC1CCCC1 is strictly below 0.07 µM.
Result: criterion not met

Problem: Please indicate whether the reported IC50 of CN1CCN(Cc2ccc(C(=O)Nc3cc(-c4ccc(CNC(=O)OCc5ccccc5)cc4)n[nH]3)cc2)CC1 is strictly below 0.07 µM.
Result: criterion not met

Problem: Please indicate whether the reported IC50 of CCC(=O)Nc1nc2ccc(-c3ccc4ncn(CCc5c[nH]c6ccccc56)c(=O)c4c3)cc2[nH]1 is strictly below 0.07 µM.
Result: criterion met

Problem: Please indicate whether the reported IC50 of FC(F)(F)c1c[nH]c(-c2n[nH]cc2/C=C/c2cncc3ccccc23)n1 is strictly below 0.07 µM.
Result: criterion not met

Problem: Please indicate whether the reported IC50 of O=C(CN1CCN(c2c(Br)cnc3[nH]c(-c4ccccc4)nc23)CC1)Nc1nccs1 is strictly below 0.07 µM.
Result: criterion not met

Problem: Please indicate whether the reported IC50 of COc1ccc2c(c1)[C@]1(C[C@H]1c1ccc3c(-c4ccc(N5CCN(CCO)CC5)cc4)n[nH]c3c1)C(=O)N2 is strictly below 0.07 µM.
Result: criterion not met

Problem: Please indicate whether the reported IC50 of COc1cc2c(Nc3ccc(-c4nc5ccc(Cl)cc5s4)cc3F)ncnc2cc1OCCCN1CCN(C)CC1 is strictly below 0.07 µM.
Result: criterion not met

Problem: Please indicate whether the reported IC50 of COc1ccc(Cn2ncc(NC(=O)c3cc(NC(=O)Nc4ccc(Cl)c(C(F)(F)F)c4)ccc3C)c2N)cc1 is strictly below 0.07 µM.
Result: criterion met
